Reported log10 Kd values follow for various binders
# Test Target: T1, PUF4 RNA-binding domain (Saccharomyces cerevisiae, UniProt P25339 537-888)
# T1 sequence: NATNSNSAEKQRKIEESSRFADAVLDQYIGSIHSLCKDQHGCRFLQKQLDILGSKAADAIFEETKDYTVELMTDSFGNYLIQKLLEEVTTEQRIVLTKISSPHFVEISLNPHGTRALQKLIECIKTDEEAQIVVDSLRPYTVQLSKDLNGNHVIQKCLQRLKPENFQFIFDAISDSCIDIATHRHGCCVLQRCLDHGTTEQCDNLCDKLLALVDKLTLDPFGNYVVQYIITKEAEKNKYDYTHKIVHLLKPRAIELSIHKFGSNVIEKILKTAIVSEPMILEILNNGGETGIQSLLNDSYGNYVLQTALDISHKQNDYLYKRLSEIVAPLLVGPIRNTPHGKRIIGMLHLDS
# Measurement Protocol: Mg; RNA-MaP; 20 mM Na-HEPES pH 7.4, 30 mM KOAc, 0.75 mM MgCl2, 0.1% Tween-20, 5% glycerol, 0.1 mg/mL BSA, 2 mM DTT; 25 C; 0.0125-409.6 nM protein
# Assay Conditions: tags: N-His6-TEV cleaved; C-SNAP kept, Cy3B-labelled; label: tethered on chip by stalled RNA polymerase
Measurement Kind: log10 Kd (log10 of the value in nM)

>  <Binder>
Id_ii_S4_P3E.3_K3.2_C3.2_[C-2T]_[T-1C]_H3.2_A3.1_F3.1_T3.2_[A10C] (ssRNA) RNA: UUUGACAACUGAUCGUUCUUUCUUCUAUAUAUAUCUUCUUUCUCGAUCAGUUGUCUUU

>  <log10 Kd>
2.08

$$$$
>  <Binder>
Ic_S2_P3E.1_K3.1_C3.1_H3.1_A3.1_[T5C]_[A6T]_F3.1_[T7A]_[A8C]_T3.1 (ssRNA) RNA: UUUGAUUAAUAUGAUAUCGUUCUUUCUUGUACUACUUCUUUCUCGAUAUCAUAUUAAUCUUU

>  <log10 Kd>
1.67

$$$$
>  <Binder>
UCUCUUUGUAAACCGUCUCUU (ssRNA) [Ic_S1_P4E.1_K4.1_C4.1_H4.1_A4.1_[T5A]_[T7C]_F4.1_[T8C]_[A9G]_T4.1]

>  <log10 Kd>
2.98

$$$$
>  <Binder>
ACAAACAGACACUAUAUUACAAAC (ssRNA) [Id_ii_S3_P3E.4_K3.3_C3.2_[C-2A]_[T-1G]_H3.3_A3.1_F3.1_T3.2_[A10T]]

>  <log10 Kd>
3.34

$$$$
>  <Binder>
Ic_S4_P4E.1_K4.1_C4.1_H4.1_A4.1_[T5C]_[A6C]_[T7G]_F4.1_[T8C]_[A9G]_T4.1 (ssRNA) RNA: UUUGACAACUGAUCGUUCUUUCUUGUACCGCGUUCUUUCUCGAUCAGUUGUCUUU

>  <log10 Kd>
2.92

$$$$
